Cited source for all entries: paper PMC10608451

Known pIC50 of a selection of molecules
molecular target: ACE (Homo sapiens, UniProt P12821); test: ACE-inhibitory activity assay of synthetic peptides (HHL substrate, hippuric acid by RP-HPLC); type: biochemical; conditions: Table 2, top 8 peptides
Sequence (P12821 30-1306, species assumed): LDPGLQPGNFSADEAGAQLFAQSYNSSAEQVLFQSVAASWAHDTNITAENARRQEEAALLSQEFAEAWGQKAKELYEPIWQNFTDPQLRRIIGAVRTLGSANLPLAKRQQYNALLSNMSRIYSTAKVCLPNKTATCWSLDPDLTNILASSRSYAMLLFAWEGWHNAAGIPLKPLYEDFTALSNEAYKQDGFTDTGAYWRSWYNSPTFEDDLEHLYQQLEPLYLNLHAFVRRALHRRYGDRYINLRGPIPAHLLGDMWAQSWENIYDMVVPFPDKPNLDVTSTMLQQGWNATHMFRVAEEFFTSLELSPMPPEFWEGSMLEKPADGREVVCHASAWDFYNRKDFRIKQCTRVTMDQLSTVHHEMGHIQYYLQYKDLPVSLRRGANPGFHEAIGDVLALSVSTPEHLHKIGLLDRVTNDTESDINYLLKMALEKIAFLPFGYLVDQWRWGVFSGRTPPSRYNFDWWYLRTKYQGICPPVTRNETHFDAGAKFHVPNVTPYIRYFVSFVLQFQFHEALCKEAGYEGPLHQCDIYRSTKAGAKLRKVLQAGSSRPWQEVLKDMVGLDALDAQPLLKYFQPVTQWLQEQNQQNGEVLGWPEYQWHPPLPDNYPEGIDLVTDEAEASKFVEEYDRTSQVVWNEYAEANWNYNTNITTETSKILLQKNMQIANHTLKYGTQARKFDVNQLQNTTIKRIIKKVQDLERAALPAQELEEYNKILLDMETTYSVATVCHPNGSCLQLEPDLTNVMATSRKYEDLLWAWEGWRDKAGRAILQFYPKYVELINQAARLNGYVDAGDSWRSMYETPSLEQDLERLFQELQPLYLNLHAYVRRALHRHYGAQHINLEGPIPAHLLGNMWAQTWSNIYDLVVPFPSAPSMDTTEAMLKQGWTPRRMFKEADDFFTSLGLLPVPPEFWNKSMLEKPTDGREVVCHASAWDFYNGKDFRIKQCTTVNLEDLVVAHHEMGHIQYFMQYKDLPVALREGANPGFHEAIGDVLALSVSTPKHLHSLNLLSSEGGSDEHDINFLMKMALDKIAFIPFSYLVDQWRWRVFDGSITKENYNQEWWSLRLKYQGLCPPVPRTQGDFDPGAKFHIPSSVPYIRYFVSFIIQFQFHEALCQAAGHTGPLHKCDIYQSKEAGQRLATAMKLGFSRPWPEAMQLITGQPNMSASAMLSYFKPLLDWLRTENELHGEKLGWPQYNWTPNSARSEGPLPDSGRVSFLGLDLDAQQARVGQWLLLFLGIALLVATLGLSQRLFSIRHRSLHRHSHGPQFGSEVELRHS
pIC50: −log10 of the molar value. Where a SMILES comes first, the peptide text is derived from it.

molecule	pIC50
CC(C)C[C@H](NC(=O)[C@@H](N)C(C)C)C(=O)NCC(=O)N[C@@H](C)C(=O)O [VLGA] (H-VLGA-OH; N-terminus and C-terminus assumed)	2.86
CC(C)C[C@H](NC(=O)[C@H](C)NC(=O)[C@H](C)NC(=O)[C@@H](N)CO)C(=O)O [SAAL] (H-SAAL-OH; N-terminus and C-terminus assumed)	3.05
CC(C)C[C@H](NC(=O)[C@H](CC(C)C)NC(=O)[C@@H](NC(=O)[C@@H](N)[C@@H](C)O)C(C)C)C(=O)O [TVLL] (H-TVLL-OH; N-terminus and C-terminus assumed)	3.24
CC(C)C[C@H](NC(=O)[C@H](CC(C)C)NC(=O)[C@@H](NC(=O)[C@@H](N)Cc1ccc(O)cc1)C(C)C)C(=O)O [YVLL] (H-YVLL-OH; N-terminus and C-terminus assumed)	3.81

---

Target: ACE (Homo sapiens)
Assay: Surface plasmon resonance (SPR) assay
Type: binding
Details: abstract, read-out: Kd (binding affinity to ACE)
Description: The affinity interaction between TLRFALHGME and ACE was verified by SPR experiments. In brief, 5 ug ACE was fixed on a COOH sensor chip by capture-coupling. Afterwards, 50–800 μmol·L^−1 of TLRFALHGME were injected sequentially into the chamber in PBS running buffer. The SPR assay was performed at 25 °C on an OpenSPRTM (Nicoya Lifesciences, Waterloo, QC, Canada). […] The affinity constant (KD) was calculated as the ratio kd/ka.
Where no end group is shown, it is not given here.

entry sequence	units label	Kd
TLRFALHGME [TLRFALHGME]	µM	80.9

---

biological target: ACE (Homo sapiens, UniProt P12821); test: Surface plasmon resonance (SPR) assay; type: binding; details: KD, printed in Figure 7
pKd: −log10 of the molar value. Where no end group is shown, it is not given here.

entry sequence	pKd
TLRFALHGME [TLRFALHGME]	4.09
